Numbers sourced from paper PMC8179049.

Please provide measured pIC50 for the entries that follow.
- System: human AspH (His6-AspH315-758) (Homo sapiens, UniProt Q12797)
- Construct: N-Terminally His6-tagged human AspH315-758 (His6-AspH315-758) was produced in Escherichia coli BL21 (DE3); made in house; host or cells: Escherichia coli BL21 (DE3), pET-28a(+) vector
- Sequence (Q12797 315-758): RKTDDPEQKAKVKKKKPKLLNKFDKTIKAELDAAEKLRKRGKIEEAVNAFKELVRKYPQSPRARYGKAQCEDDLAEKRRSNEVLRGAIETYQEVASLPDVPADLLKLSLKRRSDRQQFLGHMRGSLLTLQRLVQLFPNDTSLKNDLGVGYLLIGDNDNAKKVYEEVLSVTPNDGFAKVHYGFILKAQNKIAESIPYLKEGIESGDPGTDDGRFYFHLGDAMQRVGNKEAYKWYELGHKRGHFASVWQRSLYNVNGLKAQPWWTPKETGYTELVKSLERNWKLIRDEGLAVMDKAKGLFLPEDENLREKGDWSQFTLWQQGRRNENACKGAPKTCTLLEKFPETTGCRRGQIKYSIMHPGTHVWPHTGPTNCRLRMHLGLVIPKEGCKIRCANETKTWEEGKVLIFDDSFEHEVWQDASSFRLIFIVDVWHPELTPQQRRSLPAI
- Experimental protocol: SPE-MS AspH inhibition assay
- Assay type: biochemical
- Setup conditions: 50 nM His6-AspH315–758, 1.0 μM hFX-CP101–119, 3 μM 2OG; mean ± SD, n = 3; read-out: IC50 (inhibition of AspH)
One number for each entry, as −log10 of the molar value.

The following compounds have reported results that may help.
- Compound: "CCC(CC(=O)C(=O)O)C(=O)O (stereo not drawn)"
  pIC50: 6.21
- Compound: "O=C(O)C(=O)CC(Cc1ccc2ccccc2c1)C(=O)O (stereo not drawn)"
  pIC50: 6.77
- Compound: "COc1ccc(CC(CC(=O)O)C(=O)C(=O)O)cc1 (stereo not drawn)"
  pIC50: 5.44
- Compound: "CCCC(CC(=O)C(=O)O)C(=O)O (stereo not drawn)"
  pIC50: 6.33
- Compound: "O=C(O)C(=O)CC(Cc1ccccc1)C(=O)O (stereo not drawn)"
  pIC50: 6.37

Please state, for each entry, its recorded pIC50.
1. O=C(O)CC(Cc1ccc(F)cc1)C(=O)C(=O)O (stereo not drawn)
2. O=C(O)C(=O)CC(CCCc1ccccc1)C(=O)O (stereo not drawn)

# output
1: 5.59; 2: 6.60
